TEST DESCRIPTION: The drug is tested on WLS-098 corresponding to human gut metagenome with ENA study accession number: PRJEB37062 and ENA sample accession number: ERS12561754 for biotransformation under anaerobic condition. The drug concentrations were measured over 9 timepoints collected between 0 and 24 hours of incubation by liquid-chromatography-coupled mass spectrometry (LC–MS); further: call rule not given here
MEASUREMENT PARAMETERS: 2 µM
Where a SMILES comes first, the peptide text is derived from it. [ ]: non-standard residue; d: D form. pGlu = O=C1CC[C@@H](C(=O)O)N1; Thz = O=C(O)[C@@H]1CSCN1
OBSERVED PROPERTY: Bacterial Biotransformation

Worked examples follow.
q: Note down Bacterial Biotransformation recorded for CCC(COC(=O)c1cc(OC)c(OC)c(OC)c1)(c1ccccc1)N(C)C.O=C(O)/C=C\C(=O)O (stereo unspecified)
a: Compound NOT metabolized

q: Please give the documented Bacterial Biotransformation of O=C1CC[C@@H](C(=O)N2CSC[C@H]2C(=O)O)N1 [PIDOTIMOD] ([pGlu]-[Thz]-OH)
a: Compound NOT metabolized

q: Read the entry COC(=O)Nc1nc2ccc(C(=O)c3ccccc3)cc2[nH]1 [MEBENDAZOLE] and write its reported Bacterial Biotransformation.
a: Compound metabolized

q: Consider the compound Br.CN(C)CCCC1(c2ccc(F)cc2)OCc2cc(C#N)ccc21 (stereo unspecified) [CITALOPRAM HYDROBROMIDE] . State its measured Bacterial Biotransformation.
a: Compound metabolized

q: Supply recorded Bacterial Biotransformation for O=C1[C@H](CC[C@H](O)c2ccc(F)cc2)[C@@H](c2ccc(O)cc2)N1c1ccc(F)cc1 [EZETIMIBE] here.
a: Compound metabolized

Next:
q: Hello, please tell me recorded Bacterial Biotransformation for this one: C[C@@H]1CC[C@H]2[C@@H](C)C(=O)O[C@@H]3O[C@@]4(C)CC[C@@H]1[C@]32OO4 [ARTEMISININ]
a: Compound metabolized

q: Give the value of Bacterial Biotransformation reported for the following: CCN(CC)C(C)CN1c2ccccc2Sc2ccccc21 (stereo unspecified) [ETHOPROPAZINE]
a: Compound metabolized

q: Please indicate Bacterial Biotransformation recorded for CCCCCOC(=O)Nc1nc(=O)n([C@@H]2O[C@H](C)[C@@H](O)[C@H]2O)cc1F [CAPECITABINE]
a: Compound metabolized

q: Quick one: give measured Bacterial Biotransformation for O=C(NCc1ccccc1)OCCO [BURAMATE]
a: Compound NOT metabolized

q: Entry OC(CCN1CCCCC1)(c1ccccc1)C1CCCCC1 (stereo unspecified) [TRIHEXYPHENIDYL] needs its Bacterial Biotransformation filled in; supply it.
a: Compound metabolized

q: Write down Bacterial Biotransformation measured for item COc1ccc2[nH]c([S+]([O-])Cc3ncc(C)c(OC)c3C)nc2n1 (stereo unspecified) [TENATOPRAZOLE]
a: Compound metabolized

q: State its Bacterial Biotransformation for this compound: CC(=O)CC(c1ccccc1)c1c(O)c2ccccc2oc1=O (stereo unspecified) [WARFARIN]
a: Compound metabolized

q: For the compound CC(C)c1c(C(=O)Nc2ccccc2)c(-c2ccccc2)c(-c2ccc(F)cc2)n1CC[C@@H](O)C[C@@H](O)CC(=O)O [ATORVASTATIN] , give its measured Bacterial Biotransformation value.
a: Compound metabolized

q: Look up and state reported Bacterial Biotransformation for CC(=O)OCC(=O)[C@@]1(O)[C@@H](C)C[C@H]2[C@@H]3CCC4=CC(=O)C=C[C@]4(C)[C@@]3(F)[C@@H](O)C[C@@]21C [BETAMETHASONE ACETATE]
a: Compound metabolized

q: Report Bacterial Biotransformation, nothing else, for this compound: CNC(=C[N+](=O)[O-])NCCSCc1ccc(CN(C)C)o1 [RANITIDINE]
a: Compound NOT metabolized

q: Report measured Bacterial Biotransformation; entry is CC(=O)O[C@]1(C(C)=O)CC[C@H]2[C@@H]3C=C(Cl)C4=CC(=O)[C@@H]5C[C@@H]5[C@]4(C)[C@H]3CC[C@@]21C [CYPROTERONE ACETATE]
a: Compound metabolized

###

MEASUREMENT PARAMETERS: human gut metagenome, 24 h, 2 µM
OBSERVED PROPERTY: Bacterial Biotransformation

q: Let me know recorded Bacterial Biotransformation for CC(=O)OCC(=O)[C@@]1(O)[C@@H](C)C[C@H]2[C@@H]3CCC4=CC(=O)C=C[C@]4(C)[C@@]3(F)[C@@H](O)C[C@@]21C [BETAMETHASONE ACETATE] , thanks.
a: Compound metabolized

q: Answer with reported Bacterial Biotransformation of CC(Oc1c(Cl)cccc1Cl)C1=NCCN1 (stereo not drawn)
a: Compound metabolized

q: Hello, please tell me recorded Bacterial Biotransformation for this one: COC(=O)C1=C(C)NC(C)=C(C(=O)OC(C)C)C1c1cccc2nonc12 (stereo not drawn)
a: Compound metabolized

q: Name the recorded Bacterial Biotransformation of the molecule listed here: CC(O)(CS(=O)(=O)c1ccc(F)cc1)C(=O)Nc1ccc(C#N)c(C(F)(F)F)c1 (stereo not drawn) [BICALUTAMIDE]
a: Compound NOT metabolized

q: Return the recorded Bacterial Biotransformation value; entry: COC1=CC(=O)C[C@@H](C)[C@]12Oc1c(Cl)c(OC)cc(OC)c1C2=O
a: Compound metabolized

Further cases:
q: Recall and state the measured Bacterial Biotransformation for NC(CO)(CO)CO.O=C(c1ccccc1)c1ccc2n1CCC2C(=O)O (stereo not drawn) .
a: Compound metabolized

q: Output Bacterial Biotransformation of c1ccc([C@H]2CN3CCSC3=N2)cc1
a: Compound metabolized

q: Answer with the recorded Bacterial Biotransformation for the molecule listed here: CN1C(C(=O)Nc2ccccn2)=C(O)c2sccc2S1(=O)=O
a: Compound NOT metabolized

###

TEST DESCRIPTION: The drug is tested on Z-018 corresponding to pig gut metagenome with ENA study accession number: PRJEB37062 and ENA sample accession number: ERS12561817 for biotransformation under anaerobic condition. The drug concentrations were measured over 9 timepoints collected between 0 and 24 hours of incubation by liquid-chromatography-coupled mass spectrometry (LC–MS)
MEASUREMENT PARAMETERS: 2 µM
OBSERVED PROPERTY: Bacterial Biotransformation

# annotated cases, reported Bacterial Biotransformation shown
q: Quote Bacterial Biotransformation reported for CN1CCN(C2=Nc3cc(Cl)ccc3Nc3ccccc32)CC1 please.
a: Compound NOT metabolized

q: Retrieve Bacterial Biotransformation measured for CC(C)NCC(O)COc1ccc(CCOCC2CC2)cc1 (centres undefined) and print it.
a: Compound NOT metabolized

q: State its Bacterial Biotransformation: O=c1[nH]c2ccccc2n1C1CCN(CCCC(c2ccc(F)cc2)c2ccc(F)cc2)CC1 [PIMOZIDE]
a: Compound metabolized

q: Please give the documented Bacterial Biotransformation of COC1=CC(=O)C[C@@H](C)[C@]12Oc1c(Cl)c(OC)cc(OC)c1C2=O
a: Compound metabolized

q: Answer with the recorded Bacterial Biotransformation for the compound listed here: Nc1nc2ccc(OC(F)(F)F)cc2s1
a: Compound metabolized

q: Using the record for CCOc1ccc(NC(C)=O)cc1 , state its measured Bacterial Biotransformation.
a: Compound NOT metabolized

q: Input Clc1ccc(Cn2c(CN3CCCC3)nc3ccccc32)cc1 , output reported Bacterial Biotransformation.
a: Compound metabolized

q: Annotate the compound CC(=O)CC(c1ccccc1)c1c(O)c2ccccc2oc1=O (centres undefined) with its measured Bacterial Biotransformation.
a: Compound metabolized

Note: attention shifts to another entry.
q: Quickly give me recorded Bacterial Biotransformation for CC(C)c1c(C(=O)Nc2ccccc2)c(-c2ccccc2)c(-c2ccc(F)cc2)n1CC[C@@H](O)C[C@@H](O)CC(=O)O
a: Compound NOT metabolized

###

TEST DESCRIPTION: The drug is tested on Z-016 corresponding to mouse gut metagenome with ENA study accession number: PRJEB37062 and ENA sample accession number: ERS12561815 for biotransformation under anaerobic condition. The drug concentrations were measured over 9 timepoints collected between 0 and 24 hours of incubation by liquid-chromatography-coupled mass spectrometry (LC–MS)
MEASUREMENT PARAMETERS: 2 µM
OBSERVED PROPERTY: Bacterial Biotransformation

q: Please look at this compound and report its Bacterial Biotransformation: Fc1ccc([C@@H]2CCNC[C@H]2COc2ccc3c(c2)OCO3)cc1
a: Compound NOT metabolized

q: Give a short answer stating reported Bacterial Biotransformation for COCCc1ccc(OCC(O)CNC(C)C)cc1.COCCc1ccc(OCC(O)CNC(C)C)cc1.O=C(O)C(O)C(O)C(=O)O (centres undefined) [METOPROLOL TARTRATE] .
a: Compound NOT metabolized

q: Determine its reported Bacterial Biotransformation: CN(C)CC(c1ccc(O)cc1)C1(O)CCCCC1.O=C(O)CCC(=O)O (centres undefined) [DESVENLAFAXINE SUCCINATE]
a: Compound NOT metabolized

q: Give Bacterial Biotransformation for the following compound: COC1=CC(=O)C[C@@H](C)[C@]12Oc1c(Cl)c(OC)cc(OC)c1C2=O
a: Compound metabolized

q: Write down Bacterial Biotransformation measured for item Cc1cc2c(cc1S(N)(=O)=O)S(=O)(=O)CCC2
a: Compound NOT metabolized

Others:
q: For the compound O=c1[nH]c2ccccc2n1C1CCN(CCCC(c2ccc(F)cc2)c2ccc(F)cc2)CC1 [PIMOZIDE] , give its measured Bacterial Biotransformation value.
a: Compound metabolized

q: Provide measured Bacterial Biotransformation value, entry: Cc1ccccc1N1C(=O)c2cc(S(N)(=O)=O)c(Cl)cc2NC1C (centres undefined)
a: Compound NOT metabolized

q: Please look at this compound and report its Bacterial Biotransformation: CN1CCN(C2=Nc3cc(Cl)ccc3Nc3ccccc32)CC1
a: Compound NOT metabolized

q: Please list Bacterial Biotransformation recorded for the compound CN1CCc2c(c3ccccc3n2Cc2ccccc2)C1.CN1CCc2c(c3ccccc3n2Cc2ccccc2)C1.O=S(=O)(O)c1cccc2c(S(=O)(=O)O)cccc12
a: Compound NOT metabolized

q: State its Bacterial Biotransformation: O=C(NCc1ccccc1)OCCO [BURAMATE]
a: Compound NOT metabolized

q: Indicate its recorded Bacterial Biotransformation; the compound in question is O=c1n(CCCN2CCN(c3cccc(Cl)c3)CC2)nc2ccccn12
a: Compound NOT metabolized

q: Please supply the value of reported Bacterial Biotransformation for the item CCC(=O)NCC[C@@H]1CCc2ccc3c(c21)CCO3
a: Compound metabolized

q: Annotate the compound Cc1ccnc2c1NC(=O)c1cccnc1N2C1CC1 with its measured Bacterial Biotransformation.
a: Compound NOT metabolized

Source: ChEMBL document CHEMBL5724914
